Hi there, I'd appreciate the recorded IC50 for every entry that follows.
Target system: Voltage-gated inwardly rectifying potassium channel KCNH2 (Homo sapiens, UniProt Q12809)
Sequence (Q12809 whole entry): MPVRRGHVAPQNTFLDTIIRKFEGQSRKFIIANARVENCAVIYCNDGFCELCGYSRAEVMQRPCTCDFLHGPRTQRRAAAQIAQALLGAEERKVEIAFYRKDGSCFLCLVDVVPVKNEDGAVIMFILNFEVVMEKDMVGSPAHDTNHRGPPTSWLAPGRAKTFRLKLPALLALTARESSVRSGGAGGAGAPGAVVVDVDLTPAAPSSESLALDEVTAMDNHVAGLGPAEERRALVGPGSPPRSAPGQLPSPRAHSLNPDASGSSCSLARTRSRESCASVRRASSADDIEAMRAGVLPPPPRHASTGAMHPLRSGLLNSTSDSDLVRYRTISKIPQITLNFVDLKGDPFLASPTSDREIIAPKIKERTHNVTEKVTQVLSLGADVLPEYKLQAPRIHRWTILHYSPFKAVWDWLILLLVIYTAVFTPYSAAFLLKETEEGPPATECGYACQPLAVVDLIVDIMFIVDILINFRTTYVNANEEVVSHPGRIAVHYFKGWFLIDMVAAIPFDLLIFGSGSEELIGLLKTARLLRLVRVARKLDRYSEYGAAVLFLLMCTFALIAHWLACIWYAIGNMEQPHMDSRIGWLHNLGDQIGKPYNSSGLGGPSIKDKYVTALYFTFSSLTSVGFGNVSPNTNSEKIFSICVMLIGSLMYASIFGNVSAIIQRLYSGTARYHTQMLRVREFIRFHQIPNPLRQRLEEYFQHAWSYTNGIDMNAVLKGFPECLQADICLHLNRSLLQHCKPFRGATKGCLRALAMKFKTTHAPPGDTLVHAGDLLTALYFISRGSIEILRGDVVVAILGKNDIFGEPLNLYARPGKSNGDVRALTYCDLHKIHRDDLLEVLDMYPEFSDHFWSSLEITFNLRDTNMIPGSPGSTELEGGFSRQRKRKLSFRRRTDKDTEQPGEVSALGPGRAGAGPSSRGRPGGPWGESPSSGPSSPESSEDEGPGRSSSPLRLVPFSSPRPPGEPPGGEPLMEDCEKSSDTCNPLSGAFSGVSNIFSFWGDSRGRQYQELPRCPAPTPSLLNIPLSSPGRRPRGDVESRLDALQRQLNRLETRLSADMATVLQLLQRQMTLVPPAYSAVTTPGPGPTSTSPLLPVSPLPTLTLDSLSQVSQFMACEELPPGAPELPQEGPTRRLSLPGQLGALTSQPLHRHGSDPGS
Experiment: Inhibition of human ERG expressed in CHO-K1 cells by patch-clamp electrophysiology method
One number for each entry, in nM.

| Molecule | Result type | Recorded result |
| --- | --- | --- |
| Fc1cc(C(CC2CNC2)Oc2ccccc2F)ccc1Cl (configuration not stated) | IC50 | 1410 |

Next item in the queue.
The molecule listed as Fc1cccc(OC(CC2CNC2)c2ccc(Cl)c(F)c2)c1 (configuration not stated) has a reported IC50 of 1460

====

Target system: CYP3A4 (Homo sapiens, UniProt P08684)
Sequence (P08684 whole entry): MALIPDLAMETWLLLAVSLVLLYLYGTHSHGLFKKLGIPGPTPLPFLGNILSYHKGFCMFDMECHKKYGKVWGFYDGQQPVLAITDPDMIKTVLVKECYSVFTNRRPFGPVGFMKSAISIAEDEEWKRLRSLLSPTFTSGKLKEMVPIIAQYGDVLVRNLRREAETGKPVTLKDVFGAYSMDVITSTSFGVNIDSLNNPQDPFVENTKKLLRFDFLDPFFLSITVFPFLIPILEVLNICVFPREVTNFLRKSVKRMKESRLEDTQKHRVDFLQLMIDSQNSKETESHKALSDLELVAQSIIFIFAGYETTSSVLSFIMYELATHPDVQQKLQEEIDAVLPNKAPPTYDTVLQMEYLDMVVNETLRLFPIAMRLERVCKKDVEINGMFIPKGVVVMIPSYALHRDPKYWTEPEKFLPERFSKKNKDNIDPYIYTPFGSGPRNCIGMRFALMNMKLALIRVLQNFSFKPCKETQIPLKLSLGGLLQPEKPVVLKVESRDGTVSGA
Experiment: in vitro
Stated conditions: recombinant CYP3A4
I'd appreciate it if you could supply inhibition at 10 µM values for the items below.
Give bare numbers, in %.

Example compounds with recorded inhibition at 10 µM:
| Compound | inhibition at 10 µM [%] |
| --- | --- |
| Cc1ccc(OC(CC2CNC2)c2ccc(Cl)c(F)c2)cc1 (configuration not stated) | 13 |
| Fc1cccc(OC(CC2CNC2)c2ccc(Cl)c(F)c2)c1 (configuration not stated) | 11 |
| Fc1cc(C(CC2CNC2)Oc2ccccc2Cl)ccc1Cl (configuration not stated) | 13 |
| Fc1cc(C(CC2CNC2)Oc2ccccc2F)ccc1Cl (configuration not stated) | 7.2 |
| Cc1ccccc1OC(CC1CNC1)c1ccc(Cl)c(F)c1 (configuration not stated) | 16 |
| Cc1cccc(OC(CC2CNC2)c2ccc(Cl)c(F)c2)c1 (configuration not stated) | 12 |

Input Fc1cc(C(CC2CNC2)Oc2cccc(Cl)c2)ccc1Cl (configuration not stated) . Output inhibition at 10 µM: 13

Reference for the values: ChEMBL document CHEMBL3352322
